target: T1, human a-Mesothelin (Acro Biosystems; MSN_H5223) (human, UniProt Q13421 296-580, limits assumed); assay: SPR, mesothelin immobilised, scFv analyte, 1:1 fit
T1 construct: Bought protein immobilised on the SPR chip; Printed as 'a-Mesothelin' but used as the antigen for the anti-MSLN scFvs; also called Human MSLN; MSLN
T1 sequence (Q13421 other isoform, or with tags, fused parts or gaps limits assumed): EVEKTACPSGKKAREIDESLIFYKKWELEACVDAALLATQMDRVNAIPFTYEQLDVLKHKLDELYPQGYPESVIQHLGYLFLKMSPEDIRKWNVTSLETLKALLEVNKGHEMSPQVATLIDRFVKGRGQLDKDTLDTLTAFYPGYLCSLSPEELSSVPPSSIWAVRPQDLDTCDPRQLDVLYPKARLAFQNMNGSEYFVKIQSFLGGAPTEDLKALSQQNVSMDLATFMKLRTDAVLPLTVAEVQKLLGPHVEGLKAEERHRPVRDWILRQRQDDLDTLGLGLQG
measure name: Kd

Query: Kd; subject: PRO2992 (scFv 54-21-H03-sc01_(T146A)) (scFv, PRO1922 variant; VH substitution, AHo numbering; also called PRO1922 T146A) scFv: DIQMTQSPSSLSASVGDRVTITCQASESIYSSLAWYQQKPGKAPKLLIYLASTLASGVPSRFSGSGSGTDFTLTISSLQPEDFATYYCQSTDYTTSTHRNSFGTGTKVTVLGGGGGSGGGGSGGGGSGGGGSEVQLVESGGGLVQPGGSLRLSCAASGFSFSTTYYMCWVRQAPGKGLEWIGCTNTASSVRTYYATWAKGRFTISRDNSKNTVYLQMNSLRAEDTAVYYCARDMGFADYALNLWGQGTLVAVSS
1.7 nM

What about this binder? PRO3324 (scFv 54-21-H03-sc01_(T101R, T146Q)) (scFv, PRO1922 variant; VH substitutions, AHo numbering; also called PRO1922 T101R-T146Q) scFv: DIQMTQSPSSLSASVGDRVTITCQASESIYSSLAWYQQKPGKAPKLLIYLASTLASGVPSRFSGSGSGTDFTLTISSLQPEDFATYYCQSTDYTTSTHRNSFGTGTKVTVLGGGGGSGGGGSGGGGSGGGGSEVQLVESGGGLVQPGGSLRLSCAASGFSFSTTYYMCWVRQAPGKGLEWIGCTNTASSVRTYYATWAKGRFTISRDNSKNTVYLQMNSLRAEDRAVYYCARDMGFADYALNLWGQGTLVQVSS
1.9 nM

What about this binder? PRO2943 (scFv 54-21-H03-sc01_(T146E)) (scFv, PRO1922 variant; VH substitution, AHo numbering; also called PRO1922 T146E) scFv: DIQMTQSPSSLSASVGDRVTITCQASESIYSSLAWYQQKPGKAPKLLIYLASTLASGVPSRFSGSGSGTDFTLTISSLQPEDFATYYCQSTDYTTSTHRNSFGTGTKVTVLGGGGGSGGGGSGGGGSGGGGSEVQLVESGGGLVQPGGSLRLSCAASGFSFSTTYYMCWVRQAPGKGLEWIGCTNTASSVRTYYATWAKGRFTISRDNSKNTVYLQMNSLRAEDTAVYYCARDMGFADYALNLWGQGTLVEVSS
3.3 nM

Values from patent US20250382363A1
